All values here come from patent US8673904B2.

Item-by-item account of pIC50
- experimental_target: CatH (Rattus norvegicus)
- Sequence (P00786 96-333): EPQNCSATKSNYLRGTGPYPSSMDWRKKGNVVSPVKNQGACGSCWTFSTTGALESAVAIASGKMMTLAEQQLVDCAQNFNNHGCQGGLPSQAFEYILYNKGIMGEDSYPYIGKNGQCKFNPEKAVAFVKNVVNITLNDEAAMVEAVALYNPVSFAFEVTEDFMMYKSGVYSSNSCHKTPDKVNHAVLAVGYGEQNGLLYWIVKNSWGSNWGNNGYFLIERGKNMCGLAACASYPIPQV
- method: IC50 by competition with radiolabeled general cathepsin probe DCG-04 in rat liver lysate
- condition_details: 1 mg/ml rat liver lysate, inhibitor 20 minutes, then DCG-04 1 hour
Kindly note that pIC50 refers to -log10 of the concentration in mol/L and answer with the value alone.

What does the data say about its pIC50? Entry: CC(C)C[C@H](NC(=O)[C@H]1OC1C(=O)O)C(=O)N[C@@H](Cc1ccc(O)cc1)C(N)=O (stereo partly shown)
5.26

Also, CC(C)C[C@H](NC(=O)C1OC1C(=O)NCCc1ccc(O)cc1)C(=O)N[C@@H](Cc1ccc(O)cc1)C(N)=O (stereo partly shown) [Compound 25] please.
4.68

Also, `CC(C)C[C@H](NC(=O)[C@H]1O[C@@H]1C(=O)NCCc1ccc(O)cc1)C(=O)NCc1cccc2ccccc12` please.
5.21

###

- experimental_target: CatC (Rattus norvegicus, UniProt P80067)
- Sequence (P80067 25-462): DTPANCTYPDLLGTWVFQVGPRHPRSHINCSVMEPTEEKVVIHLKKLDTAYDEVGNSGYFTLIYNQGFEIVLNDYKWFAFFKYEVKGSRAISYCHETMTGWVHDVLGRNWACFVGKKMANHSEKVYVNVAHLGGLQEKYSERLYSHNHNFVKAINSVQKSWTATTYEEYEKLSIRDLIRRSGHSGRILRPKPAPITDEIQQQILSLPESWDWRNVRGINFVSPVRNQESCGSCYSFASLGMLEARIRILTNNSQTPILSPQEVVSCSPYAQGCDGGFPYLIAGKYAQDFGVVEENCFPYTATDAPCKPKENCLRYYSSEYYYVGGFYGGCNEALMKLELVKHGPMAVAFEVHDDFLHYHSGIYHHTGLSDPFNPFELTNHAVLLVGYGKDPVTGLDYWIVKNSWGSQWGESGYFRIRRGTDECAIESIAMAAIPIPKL
- method: IC50 by competition with radiolabeled general cathepsin probe DCG-04 in rat liver lysate
- condition_details: 1 mg/ml rat liver lysate, inhibitor 20 minutes, then DCG-04 1 hour
Item-by-item account of IC50
Field: numeric (µM). Do not append units.

CC(C)C[C@H](NC(=O)[C@H]1OC1C(=O)O)C(=O)N[C@@H](Cc1ccc(O)cc1)C(N)=O (some centres unmarked) [Compound 40] | 0.2
CC(C)C[C@H](NC(=O)[C@H]1O[C@@H]1C(=O)NCCc1ccc(O)cc1)C(=O)NCc1cccc2ccccc12 [Compound 66] | 5.69
CC(C)C[C@H](NC(=O)[C@H]1O[C@@H]1C(=O)O)C(=O)NCCc1ccc(O)cc1 [JPMOH, reference compound] | 1
CC(C)C[C@H](NC(=O)C1OC1C(=O)NCCc1ccc(O)cc1)C(=O)N[C@@H](Cc1ccc(O)cc1)C(N)=O (some centres unmarked) [Compound 25] | 11
CCC[C@H](NC(=O)C1O[C@@H]1C(=O)O)C(=O)N[C@@H](Cc1ccc(O)cc1)C(N)=O (some centres unmarked) [Compound 77] | 0.45
CC(C)C[C@H](NC(=O)C1OC1C(=O)NCCCO)C(=O)N[C@@H](Cc1ccc(O)cc1)C(N)=O (some centres unmarked) [Compound 31] | 11

Next:
What does the data say about its IC50? Entry: CCOC(=O)[C@H]1O[C@@H]1C(=O)N[C@@H](CC(C)C)C(=O)NCCc1ccc(O)cc1 [JPMOEt, reference compound]
8.9

###

- Tested on: cathepsin targets
- method: Cathepsin targets of the compounds (Table 4)
- Format: biochemical, rat
- condition_details: cathepsin target(s) inhibited; General = all cathepsins
assay_metric: Target

The following compounds have reported results that may help.
CCOC(=O)[C@H]1O[C@@H]1C(=O)N[C@@H](CC(C)C)C(=O)NCCc1ccc(O)cc1 [JPMOEt, reference compound] | General
Cc1ccc(C[C@H](NC(=O)C2OC2C(=O)NCCN2CCOCC2)C(=O)N[C@@H](Cc2ccc(O)cc2)C(N)=O)cc1 (some centres unmarked) [Compound 4] | Cat B
Cc1ccc(C[C@H](NC(=O)[C@H]2OC2C(=O)NCCN2CCCC2)C(=O)N[C@@H](Cc2ccc(O)cc2)C(N)=O)cc1 (some centres unmarked) [Compound 7] | Cat B
CC(C)C[C@H](NC(=O)[C@H]1O[C@@H]1C(=O)O)C(=O)NCCc1ccc(O)cc1 [JPMOH, reference compound] | General
CC(C)C[C@H](NC(=O)[C@H]1OC1C(=O)NCC(=O)O)C(=O)N[C@@H](Cc1ccc(O)cc1)C(N)=O (some centres unmarked) [Compound 35] | Cat B
CCOC(=O)C1O[C@H]1C(=O)N[C@@H](Cc1ccc(C)cc1)C(=O)NCCc1ccccn1 (some centres unmarked) [Compound 126] | General
CCC[C@H](NC(=O)C1O[C@H]1C(=O)NCC(=O)O)C(=O)N[C@@H](Cc1ccc(O)cc1)C(N)=O (some centres unmarked) [Compound 78] | Cat B
CCC[C@H](NC(=O)[C@H]1O[C@@H]1C(=O)O)C(=O)NCc1cccc2ccccc12 [Compound 114] | General

What does the data say about its Target? Entry: CCOC(=O)C1OC1C(=O)N[C@@H](Cc1ccc(C)cc1)C(=O)N[C@@H](Cc1ccc(O)cc1)C(N)=O (some centres unmarked) [Compound 18]
Cat B

Also, Cc1ccc(C[C@H](NC(=O)[C@H]2OC2C(=O)O)C(=O)N[C@@H](Cc2ccc(O)cc2)C(N)=O)cc1 (some centres unmarked) [Compound 19] please.
Cat B

Also, CC(C)C[C@H](NC(=O)C1OC1C(=O)NN1CCN(C)CC1)C(=O)N[C@@H](Cc1ccc(O)cc1)C(N)=O (some centres unmarked) [Compound 30] please.
Cat B

###

- System: cathepsin targets
- method: Cathepsin targets of the compounds (Table 4)
- Type: biochemical, rat
- condition_details: cathepsin target(s) inhibited; General = all cathepsins
assay_metric: Target

The following molecules have reported results that may help.
CC(C)C[C@H](NC(=O)C1OC1C(=O)N[C@@H](C)c1ccccc1)C(=O)N[C@@H](Cc1ccc(O)cc1)C(N)=O (stereo partly shown) [Compound 37] | Cat B
Cc1ccc(C[C@H](NC(=O)C2OC2C(=O)NCCCO)C(=O)N[C@@H](Cc2ccc(O)cc2)C(N)=O)cc1 (stereo partly shown) [Compound 12] | Cat B
CCC[C@H](NC(=O)[C@H]1O[C@@H]1C(=O)NCCc1ccc(O)cc1)C(=O)NCc1cccc2ccccc12 [Compound 111] | Cat Z
CC(C)C[C@H](NC(=O)C1O[C@H]1C(=O)NCCCO)C(=O)N[C@@H](Cc1ccc(O)cc1)C(N)=O (stereo partly shown) [Compound 52] | Cat B

What does the data say about its Target? Entry: CC(C)CNC(=O)C1OC1C(=O)N[C@@H](CC(C)C)C(=O)N[C@@H](Cc1ccc(O)cc1)C(N)=O (stereo partly shown) [Compound 36]
Cat B

###

- Test system: cathepsin targets
- method: Cathepsin targets of the compounds (Table 4)
- Assay type: biochemical, rat
- condition_details: cathepsin target(s) inhibited; General = all cathepsins
assay_metric: Target

The following compounds have reported results that may help.
CCC[C@H](NC(=O)[C@H]1O[C@@H]1C(=O)OCC)C(=O)NCc1cccc2ccccc12 | General
CC(C)C[C@H](NC(=O)C1O[C@H]1C(=O)NCCN1CCCCC1)C(=O)N[C@@H](Cc1ccc(O)cc1)C(N)=O (stereo partly drawn) | Cat B
Cc1ccc(C[C@H](NC(=O)C2O[C@@H]2C(=O)NN2CCN(C)CC2)C(=O)N[C@@H](Cc2ccc(O)cc2)C(N)=O)cc1 (stereo partly drawn) | Cat B
Cc1ccc(C[C@H](NC(=O)C2O[C@H]2C(=O)O)C(=O)N[C@@H](Cc2ccc(O)cc2)C(N)=O)cc1 (stereo partly drawn) | Cat Z
CC(C)C[C@H](NC(=O)C1OC1C(=O)NCCc1ccc(-c2ccccc2)cc1)C(=O)N[C@@H](Cc1ccc(O)cc1)C(N)=O (stereo partly drawn) [Compound 24] | Cat B
CCC[C@H](NC(=O)[C@@H]1OC1C(=O)OCC)C(=O)NCCc1ccccn1 (stereo partly drawn) | General

What does the data say about its Target? Entry: Cc1ccc(C[C@H](NC(=O)C2OC2C(=O)NCc2ccccc2)C(=O)N[C@@H](Cc2ccc(O)cc2)C(N)=O)cc1 (stereo partly drawn)
Cat B

###

- System: cathepsin targets
- method: Cathepsin targets of the compounds (Table 4)
- Assay type: biochemical, rat
- condition_details: cathepsin target(s) inhibited; General = all cathepsins
assay_metric: Target

CC(C)C[C@H](NC(=O)C1O[C@H]1C(=O)NCCc1ccccn1)C(=O)N[C@@H](Cc1ccc(O)cc1)C(N)=O (stereo partly shown) | Cat B
CCOC(=O)[C@H]1O[C@@H]1C(=O)N[C@@H](Cc1ccc(C)cc1)C(=O)NCc1cccc2ccccc12 | Cat Z
CC(C)C[C@H](NC(=O)C1OC1C(=O)NCCc1ccc(-c2ccccc2)cc1)C(=O)N[C@@H](Cc1ccc(O)cc1)C(N)=O (stereo partly shown) [Compound 45] | Cat B

###

- experimental_target: CatC (Rattus norvegicus)
- method: IC50 by competition with radiolabeled general cathepsin probe DCG-04 in rat liver lysate
- condition_details: 1 mg/ml rat liver lysate, inhibitor 20 minutes, then DCG-04 1 hour
Item-by-item account of IC50

Recorded IC50 for CCC[C@H](NC(=O)C1O[C@H]1C(=O)O)C(=O)N[C@@H](Cc1ccc(O)cc1)C(N)=O (stereo partly shown) with CatC (Rattus norvegicus), please?
> 25 µM

Also, NC(=O)[C@H](Cc1ccc(O)cc1)NC(=O)[C@H](CC1CCCCC1)NC(=O)C1OC1C(=O)O (stereo partly shown) please.
> 25 µM

###

- Tested on: cathepsin targets
- method: Cathepsin targets of the compounds (Table 4)
- Format: biochemical, rat
- condition_details: cathepsin target(s) inhibited; General = all cathepsins
assay_metric: Target

CC(C)C[C@H](NC(=O)[C@H]1OC1C(=O)NCc1ccccc1)C(=O)N[C@@H](Cc1ccc(O)cc1)C(N)=O (stereo partly drawn) | Cat B
CC(C)C[C@H](NC(=O)C1OC1C(=O)NCCc1ccc(O)cc1)C(=O)N[C@@H](Cc1ccc(O)cc1)C(N)=O (stereo partly drawn) [Compound 25] | Cat B
